experiment: Displacement of […]FMZ from Wistar rat cerebellum GABAA receptor by competitive radioligand assay; format: tissue-based
pKi: −log10 of the molar value.
reported_endpoint: pKi

molecule=O=C(NCCF)c1ncn2c1[C@@H]1CCCN1C(=O)c1c(Br)cccc1-2 reported_endpoint=pKi reported_relation=< reported_result=5.00
molecule="CC(C)(C)OC(=O)c1ncn2c1[C@@H]1CCCN1C(=O)c1c(Br)cccc1-2 [BRETAZENIL]" reported_endpoint=pKi reported_relation== reported_result=9.52
molecule=CCOC(=O)c1ncn2c1CN(C)C(=O)c1nc(F)ccc1-2 reported_endpoint=pKi reported_relation== reported_result=7.85
molecule="CCOC(=O)c1ncn2c1CN(C)C(=O)c1cc(F)ccc1-2 [FLUMAZENIL]" reported_endpoint=pKi reported_relation== reported_result=8.89
molecule=CN1Cc2c(C(=O)OC(C)(C)C)ncn2-c2cccc(F)c2C1=O reported_endpoint=pKi reported_relation== reported_result=9.12
molecule=CN1Cc2c(C(=O)OC(C)(C)C)ncn2-c2nccc(F)c2C1=O reported_endpoint=pKi reported_relation== reported_result=8.89
molecule=CN1Cc2c(C(=O)NCCF)ncn2-c2ccc(F)cc2C1=O reported_endpoint=pKi reported_relation=< reported_result=5.00
molecule=O=C(NCCCF)c1ncn2c1[C@@H]1CCCN1C(=O)c1c(Br)cccc1-2 reported_endpoint=pKi reported_relation=< reported_result=5.00
molecule=CCOC(=O)c1ncn2c1CN(CCF)C(=O)c1cc(F)ccc1-2 reported_endpoint=pKi reported_relation== reported_result=7.87
molecule=CC(C)(C)OC(=O)c1ncn2c1CN(CCF)C(=O)c1cc(F)ccc1-2 reported_endpoint=pKi reported_relation== reported_result=8.05
